Target: Lysosomal acid glucosylceramidase (Homo sapiens, UniProt P04062)
Sequence (P04062 whole entry): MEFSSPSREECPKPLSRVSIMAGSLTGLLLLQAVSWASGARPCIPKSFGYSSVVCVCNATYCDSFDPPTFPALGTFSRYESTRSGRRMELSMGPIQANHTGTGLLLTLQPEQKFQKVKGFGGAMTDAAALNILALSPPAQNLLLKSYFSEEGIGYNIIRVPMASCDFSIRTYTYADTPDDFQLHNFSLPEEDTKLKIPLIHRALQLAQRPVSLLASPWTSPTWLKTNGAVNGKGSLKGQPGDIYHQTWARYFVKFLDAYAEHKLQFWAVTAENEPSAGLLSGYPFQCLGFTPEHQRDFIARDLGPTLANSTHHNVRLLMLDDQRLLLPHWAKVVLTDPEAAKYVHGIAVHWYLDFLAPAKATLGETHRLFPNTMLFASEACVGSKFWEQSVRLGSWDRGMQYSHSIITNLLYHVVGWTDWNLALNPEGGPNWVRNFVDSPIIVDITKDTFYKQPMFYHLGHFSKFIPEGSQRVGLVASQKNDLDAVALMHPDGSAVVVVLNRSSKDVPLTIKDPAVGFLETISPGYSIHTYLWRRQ
Experiment: Inhibition of recombinant GBA1 preincubated with compound for 30 mins using 4-methylumbelliferyl-B-glucoside substrate by fluorimetric assay
PROPERTY_LABEL: IC50

INSERT INTO results (query_smiles, target_system, observed) VALUES
  ('CCCCCCN1C[C@H](O)[C@@H](O)[C@H](O)[C@@H]1CO', 'Lysosomal acid glucosylceramidase (Homo sapiens, UniProt P04062)', '> 1000 µM'),
  ('CCCCCN1C[C@H](O)[C@@H](O)[C@H](O)[C@@H]1CO', 'Lysosomal acid glucosylceramidase (Homo sapiens, UniProt P04062)', '> 1000 µM'),
  ('CCCCCCCCOCCCCCN1C[C@H](O)[C@@H](O)[C@H](O)[C@@H]1CO', 'Lysosomal acid glucosylceramidase (Homo sapiens, UniProt P04062)', '15 µM'),
  ('CCCCOCCCCCN1C[C@H](O)[C@@H](O)[C@H](O)[C@@H]1CO', 'Lysosomal acid glucosylceramidase (Homo sapiens, UniProt P04062)', '> 1000 µM');

Reference source for all entries: ChEMBL document CHEMBL1649099
